assay.system: recombinant HIV-1 gp120BaL protein (HIV-1 (isolate BaL))
experiment: ELISA; solid-phase ELISA; gp120BaL coated at 8 ug/ml (50 mM bicarbonate pH 9.6, 4°C, 16 h); biotinylated peptides at 30 ug/ml in 20 mM Tris-HCl pH 7.4, 0.05% Tween-20, 37°C, 60 min; detected with AP-streptavidin, read at 405 nm
Ends that are not written are not given here. * marks the point of attachment. Biotin = O=C1N[C@H]2[C@H](CS[C@H]2CCCCC(=O)*)N1
Rule: measured relative binding below 2 gets Y; anything equal to or greater than 2 gets N.

Example cases with answers are listed next.
Biotin-RGSWGTVCDDSWDTN [SRCR1 peptide P6] :: N
Biotin-GSGPIALDDVRCSGH [SRCR1 peptide P14] :: Y
Biotin-VEILYRGSWGTVCDD [SRCR1 peptide P5] :: N
Biotin-NCGHGEDAGVICSA (cysteine pairing not given here) [SRCR1 peptide P20] :: Y

Here's the next entry for you.
Request: Input Biotin-GWLSHNCGHGEDAGV [SRCR1 peptide P19, biotinylated] ; condition: relative binding strictly below 2. Does it hold?
Result: N
